target: AAK1 (full length human) with AP2M1 in HEK293F cells (Homo sapiens, UniProt Q2M2I8); construct: expressed in transfected cells; host or cells: HEK293F; assay: HEK281 cell-based assay (phospho-mu2 Western blot in transfected HEK293F cells); details: given as IC50 range, 3 hours, inhibition of mu2 phosphorylation
Sequence (Q2M2I8 whole entry): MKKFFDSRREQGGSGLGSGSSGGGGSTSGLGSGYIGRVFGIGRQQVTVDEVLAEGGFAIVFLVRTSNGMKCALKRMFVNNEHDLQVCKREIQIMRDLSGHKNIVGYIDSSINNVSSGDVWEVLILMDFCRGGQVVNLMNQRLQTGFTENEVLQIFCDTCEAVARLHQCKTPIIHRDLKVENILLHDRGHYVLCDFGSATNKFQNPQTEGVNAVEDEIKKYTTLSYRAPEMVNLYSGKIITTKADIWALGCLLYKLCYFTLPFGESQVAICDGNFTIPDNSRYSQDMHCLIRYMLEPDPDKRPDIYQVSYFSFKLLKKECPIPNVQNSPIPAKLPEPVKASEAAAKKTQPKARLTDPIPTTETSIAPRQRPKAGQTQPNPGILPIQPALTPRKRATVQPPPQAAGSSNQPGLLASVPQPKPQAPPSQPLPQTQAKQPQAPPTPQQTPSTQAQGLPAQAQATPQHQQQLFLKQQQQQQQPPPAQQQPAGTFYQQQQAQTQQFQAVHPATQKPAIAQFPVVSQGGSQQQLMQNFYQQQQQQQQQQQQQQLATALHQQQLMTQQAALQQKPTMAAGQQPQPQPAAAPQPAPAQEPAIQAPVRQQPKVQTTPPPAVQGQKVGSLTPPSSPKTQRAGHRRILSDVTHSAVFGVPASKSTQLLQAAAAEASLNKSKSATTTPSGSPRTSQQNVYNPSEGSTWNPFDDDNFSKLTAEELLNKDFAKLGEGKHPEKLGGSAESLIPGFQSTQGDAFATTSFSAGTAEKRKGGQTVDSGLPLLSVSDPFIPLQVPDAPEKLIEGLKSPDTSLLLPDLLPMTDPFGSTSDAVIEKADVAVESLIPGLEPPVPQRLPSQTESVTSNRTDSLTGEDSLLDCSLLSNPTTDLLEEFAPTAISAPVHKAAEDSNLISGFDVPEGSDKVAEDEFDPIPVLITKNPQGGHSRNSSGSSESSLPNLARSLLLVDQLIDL
IC50 listing for selected compounds.
REPORTED METRIC: IC50

[[record]]
compound = "Cc1nccc2c1c(=O)n(C)c1cc(OC[C@@H](N)CC(C)C)c(C(F)(F)F)cc21"
observed_measurement = "1 to 10 nM"

[[record]]
compound = "Cn1c(=O)c2cnccc2c2ccc(OCC(N)CCC(F)(F)F)cc21 (centres unmarked)"
observed_measurement = "10 to 100 nM"

[[record]]
compound = "Cc1nccc2c1c(=O)n(C)c1cc(OC[C@@H](N)CC3CCC3)c(Cl)cc21"
observed_measurement = "1 to 10 nM"

[[record]]
compound = "Cc1nccc2c1c(=O)n(C)c1cc(OC[C@@H](N)CC(C)C)ccc21"
observed_measurement = "10 to 100 nM"

[[record]]
compound = "Cc1nccc2c1c(=O)n(C)c1cc(OCC(C)(N)CC(C)C)ccc21 (centres unmarked)"
observed_measurement = "10 to 100 nM"

[[record]]
compound = "Cc1nccc2c1c(=O)n(C)c1cc(OCC(N)CCC(F)(F)F)c(C#N)cc21 (centres unmarked)"
observed_measurement = "1 to 10 nM"

[[record]]
compound = "CC(C)C[C@H](N)COc1cc2c(cc1F)c1ccncc1c(=O)n2C"
observed_measurement = "1 to 10 nM"

[[record]]
compound = "CN[C@H](COc1cc2c(cc1C#N)c1ccnc(C)c1c(=O)n2C)CC(C)C"
observed_measurement = "1 to 10 nM"

[[record]]
compound = "Cc1nccc2c1c(=O)n(C)c1cc(OC[C@@H](N)CC(C)C)c(-c3cncs3)cc21"
observed_measurement = "1 to 10 nM"

[[record]]
compound = "Cc1nccc2c1c(=O)n(C)c1cc(OC[C@](C)(N)CC(C)C)ccc21 (single isomer, unassigned)"
observed_measurement = "10 to 100 nM"

[[record]]
compound = "Cc1nccc2c1c(=O)n(C)c1cc(OC[C@H](N)CC(C)C)ccc21"
observed_measurement = "10 to 100 nM"

[[record]]
compound = "CC(C)CC(C)(N)COc1ccc2c3ccncc3c(=O)n(C)c2c1 (single isomer, unassigned) [Example 59]"
observed_measurement = "10 to 100 nM"

[[record]]
compound = "Cc1cc2c3ccnc(C)c3c(=O)n(C)c2cc1OC[C@@H](N)CC1CCC1"
observed_measurement = "1 to 10 nM"

[[record]]
compound = "CC(C)CC(C)(N)COc1ccc2c3ccncc3c(=O)n(C)c2c1 (single isomer, unassigned) [Example 58]"
observed_measurement = "10 to 100 nM"

[[record]]
compound = "Cc1nccc2c1c(=O)n(C)c1cc(OC[C@@H](N)CC(C)C)c(F)cc21"
observed_measurement = "1 to 10 nM"

[[record]]
compound = "Cc1nccc2c1c(=O)n(C)c1cc(OC[C@@H](N)CC=C(F)F)c(C#N)cc21"
observed_measurement = "< 1 nM"

[[record]]
compound = "Cc1nccc2c1c(=O)n(C)c1cc(OC[C@@H](N)CC(C)C(F)(F)F)ccc21 (single isomer, unassigned)"
observed_measurement = "10 to 100 nM"

